Molecular target: recombinant human catalytic domain of MMP-13 (Homo sapiens)
Construct: catalytic domain of MMP-13 (165 amino acids, residues 104-268, 19 kDa)
Assay: biochemical
Method: A continuous assay was used in which the substrate is a synthetic peptide containing a fluorescent group (7-methoxycoumarin; Mca) that is quenched by energy transfer to a 2,4-dinitrophenyl group. See Knight, C. […] The initial rate of the cleavage reaction was determined at 30° C. with a fluorescence plate reader (excitation filter of 330 nm and emission filter of 395 nm) immediately after substrate addition. […] In-Vitro Fluorescence Assay of MMP-13 Activity […]
Reported values of IC50 for individual entries
// note: answer is a bare numeric in µM

Worked examples follow.
>  <COMPOUND>
CC#CCOc1ccc(S(=O)(=O)N[C@H](Cc2cn(Cc3ccc(F)cc3)c3ccccc23)C(=O)O)cc1

>  <IC50, µM>
17

$$$$
>  <COMPOUND>
CC#CCOc1ccc(S(=O)(=O)N[C@@H](Cc2c[nH]c3ccc(OC)cc23)C(=O)O)cc1

>  <IC50, µM>
13.6

$$$$
>  <COMPOUND>
CC#CCOc1ccc(S(=O)(=O)N[C@@H](Cc2c[nH]c3ccc(C)cc23)C(=O)O)cc1

>  <IC50, µM>
1.81

$$$$
>  <COMPOUND>
CC#CCOc1ccc(S(=O)(=O)N[C@@H](Cc2c[nH]c3ccc(OCc4ccccc4)cc23)C(=O)O)cc1

>  <IC50, µM>
4.44

$$$$
>  <COMPOUND>
CC#CCOc1ccc(S(=O)(=O)NC(Cc2c[nH]c3ccc(C)cc23)C(=O)O)cc1 (racemic)

>  <IC50, µM>
6.87

$$$$

Quick check: IC50 of CC#CCOc1ccc(S(=O)(=O)NC(Cc2c[nH]c3ccc(OCc4ccccc4)cc23)C(=O)O)cc1 (racemic) ?
15.3
